- subjectOfTest: human LPA1 (Homo sapiens)
- Construct: expressed in transfected cells; host or cells: Chinese hamster ovary (CHO) cells
- protocolDescription: LPA1 functional antagonist assay (calcium flux)
- Type: cell-based
- measurementSetup: CHO cells overexpressing human LPA1; calcium flux induced by 10 nM LPA; read-out: hLPA1 IC50
measuredParameter: IC50 (nM)

Take a look at these entries with their results.
molecule: Cc1nc(-c2nnn(C)c2NC(=O)OC2CC3(CC3)C2)ccc1O[C@H]1CCC[C@H](C(=O)O)C1
subjectOfTest: human LPA1 (Homo sapiens)
unitsText: nM
IC50: 181

molecule: Cc1nc(-c2nnn(C)c2CNC(=O)OCC(C)CC(F)(F)F)ccc1O[C@H]1CCC[C@H](C(=O)O)C1 (mixture of isomers)
subjectOfTest: human LPA1 (Homo sapiens)
unitsText: nM
IC50: 69

molecule: Cn1nnc(-c2ccc(O[C@@H]3CCC[C@@H](C(=O)O)C3)cc2)c1CNC(=O)OCc1ccccc1 (racemic)
subjectOfTest: human LPA1 (Homo sapiens)
unitsText: nM
IC50: 664

I = CCOCCOC(=O)NCc1c(-c2ccc(O[C@H]3CCC[C@H](C(=O)O)C3)c(C)n2)nnn1C
II = Cn1nnc(-c2ccc(O[C@H]3CCC[C@H](C(=O)O)C3)cn2)c1CNC(=O)OCc1cccc(F)c1
IN: // which entry has the larger IC50 value, I or II ? In your reply, give the label of the chosen option.
OUT: I
(I: 885 nM, II: 23 nM)

----------
- subjectOfTest: human LPA1 (Homo sapiens, UniProt Q92633)
- Construct: expressed in transfected cells; host or cells: Chinese hamster ovary (CHO) cells
- Sequence (Q92633 whole entry): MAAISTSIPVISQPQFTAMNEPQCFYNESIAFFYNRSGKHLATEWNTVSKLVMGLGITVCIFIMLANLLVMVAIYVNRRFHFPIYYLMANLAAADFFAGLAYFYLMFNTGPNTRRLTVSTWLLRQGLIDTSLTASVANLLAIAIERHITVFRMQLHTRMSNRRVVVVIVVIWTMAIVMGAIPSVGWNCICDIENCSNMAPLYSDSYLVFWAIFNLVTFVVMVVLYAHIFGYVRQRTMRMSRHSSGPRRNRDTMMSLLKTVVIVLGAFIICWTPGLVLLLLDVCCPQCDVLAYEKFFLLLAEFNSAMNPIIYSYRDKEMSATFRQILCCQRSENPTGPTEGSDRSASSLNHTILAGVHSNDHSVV
- protocolDescription: LPA1 functional antagonist assay (calcium flux)
- Format: cell-based
- measurementSetup: CHO cells overexpressing human LPA1; calcium flux induced by 10 nM LPA; read-out: hLPA1 IC50
measuredParameter: IC50 (nM)

compound: CCCCCOC(=O)NCc1c(-c2ccc(O[C@H]3CCC[C@H](C(=O)O)C3)cn2)nnn1C [Example 27]
measuredParameter: IC50
unitsText: nM
observed: 16
--
compound: COc1ccc(OC(=O)NCc2c(-c3ccc(O[C@H]4CCC[C@H](C(=O)O)C4)c(C)n3)nnn2C)cc1 [Example 63]
measuredParameter: IC50
unitsText: nM
observed: 792
--
compound: CC(C)CCOC(=O)NCc1c(-c2ccc(O[C@@H]3CCC[C@@H](C(=O)O)C3)cc2)nnn1C (racemic) [Example 4]
measuredParameter: IC50
unitsText: nM
observed: 148

1 = CCCCNC(=O)NCc1c(-c2ccc(O[C@H]3CCC[C@H](C(=O)O)C3)c(C)n2)nnn1C [Example 124]
2 = Cc1nc(-c2nnn(C)c2CNC(=O)OC2CC3(CC3)C2)c(F)cc1O[C@H]1CCC[C@H](C(=O)O)C1 [Example 214]
3 = CCCCOC(=O)NCc1c(-c2ccc(O[C@H]3CCC[C@H](C(=O)O)C3)c(CC)n2)nnn1C [Example 41]
4 = CCCCCN(C)C(=O)NCc1c(-c2ccc(O[C@H]3CCC[C@H](C(=O)O)C3)c(C)n2)nnn1C [Example 111]
IN: Ascending by IC50, please: list the compounds accordingly. To answer, arrange all of the labels according to the requested order.
OUT: 3, 2, 4, 1
(3: 8 nM, 2: 129 nM, 4: 226 nM, 1: 434 nM)

a = Cc1nc(-c2nnn(C)c2CNC(=O)OCc2cc(F)ccc2F)ccc1O[C@H]1CCC[C@H](C(=O)O)C1 [Example 17]
b = CCCC(C)NC(=O)Nc1c(-c2ccc(O[C@H]3CCC[C@H](C(=O)O)C3)c(C)n2)nnn1C (mixture of isomers) [Example 147]
IN: // compare: a vs b , metric IC50, want the smaller Field: selected label. Fill in the label of the entry you choose.
OUT: a
(a: 7 nM, b: 517 nM)

a = Cc1nc(-c2nnn(C)c2NC(=O)OCC(C)(C)C)ccc1O[C@H]1CCC[C@H](C(=O)O)C1 [Example 67]
b = Cc1nc(-c2nnn(C)c2CN(C)S(=O)(=O)N(C)Cc2ccccc2)ccc1O[C@H]1CCC[C@H](C(=O)O)C1 [Example 228]
IN: Response body: label of entry with the larger IC50; valid values a , b . Output the label that corresponds to your choice.
OUT: b
(b: 218 nM, a: 72 nM)
